In this section we review reported TGI values for a set of compounds.
test system: MDA-N; experiment: NCI tumour cell line growth inhibition, 48 h
quantity-name: TGI (µM)

compound	value-operator	measured-value
C(=Nc1ccc(-c2nc3ccccc3o2)cc1)c1ccco1	>	100
CCOC(=O)C1(C(=O)OCC)COS(=O)OC1	>	100
C(/C=C(\Nc1ccccc1)C12CC3CC(CC(C3)C1)C2)=Nc1ccccc1	=	30.9
CC(O)CCCOC(c1ccccc1)(c1ccccc1)c1ccccc1 (stereo unspecified)	=	31.7
CCNC(=O)/C(=C/c1ccc(OC)cc1)c1cc(OC)c(OC)c(OC)c1	=	4.26
COC(=O)C1=COC(C)C2CN3CCc4c([nH]c5ccccc45)C3CC12 (stereo unspecified)	>	100

====

In this section we review reported TGI values for a set of compounds.
test system: SK-MEL-5 melanoma; assay: NCI tumour cell line growth inhibition, 48 h
quantity-name: TGI

compound	subject-of-test	measured-value
CCOC(=O)C(Cl)(Cl)/S(=N\S(=O)(=O)c1ccccc1)NC(=O)c1ccccc1 (stereo not given)	SK-MEL-5 melanoma	> 100 µM
C[C@]12CC[C@@H]3c4ccc(O)cc4CC[C@H]3[C@@H]1C/C(=C\c1ccncc1)[C@@H]2O	SK-MEL-5 melanoma	17.3 µM
Nc1cc(Br)c(-c2nnc(CCC(=O)c3nc4ccccc4[nH]3)o2)c(Br)c1	SK-MEL-5 melanoma	> 100 µM
COC(=O)/C(=N/O)C(C(=O)C=C(C)C)C(=O)C(=O)Nc1nc2ccc([N+](=O)[O-])cc2s1 (stereo not given)	SK-MEL-5 melanoma	> 100 µM
CC(=O)O/N=C/c1c2ccccc2cc2ccccc12	SK-MEL-5 melanoma	> 100 µM

====

test system: LOX IMVI melanoma; experiment: NCI tumour cell line growth inhibition, 48 h; in the data active = GI50 below about 0.43 µM; inactive = the rest
Possible outcomes: Y = active, N = inactive

compound	label-value
Nc1cc(Br)c(-c2nnc(CCC(=O)c3nc4ccccc4[nH]3)o2)c(Br)c1	N
Cn1cc(-c2csc(-c3cn(CCCCN4CCCCC4)c4ccccc34)n2)c2cccnc21	N
Nc1ccccc1O.O.O=C(O)C1[O][Sb][O]C1C(=O)O (stereo not drawn)	N
COc1cc2c(/C=N\N=C(N)N)c[nH]c2cc1C	N
Cc1ccc(OCCOCCOCCOCCOc2ccc(C)n(O)c2=S)c(=S)n1O	Y
CCN(CC)CCCCCCNc1cccc2cc(Br)cnc12	N
COc1cc2c(Nc3cc(Cl)c(OC)c(Cl)c3)c(C#N)cnc2cc1OCCCN1CCN(C)CC1	N
CCCCCCCCCCNC(=O)CI	Y
Cc1cc(N/N=C/c2ccccn2)nc2ccccc12	Y
O=C(Nc1cc(Nc2ncccc2-c2ncnc3nc[nH]c23)ccc1F)c1cc(C(F)(F)F)cc(C(F)(F)F)c1	Y
O=C(c1ccco1)c1c(C(F)(F)F)n([O-])c2ccc(C(F)(F)F)cc2[n+]1=O	Y
O=C(NCc1ccc(Cn2c(=O)sn(-c3ccccc3)c2=O)cc1)OCc1ccc2cccc(O)c2n1	Y
COc1ccc(-c2cnnn2-c2nonc2-n2cccc2)cc1	N

====

test system: COLO 205 colon; test: NCI tumour cell line growth inhibition, 48 h
In this section we review reported TGI values for a set of molecules.

cpd-smiles	TGI
COC(=O)/C([Se]c1c(C)cc(C)cc1C)=C(/[Se]c1c(C)cc(C)cc1C)C(=O)OC	> 100 µM
Cc1cn([C@@H]2C[C@H](CO)[C@@H](O)C2)c(=O)[nH]c1=O	> 100 µM
Nc1ccccc1C(=O)/C=C/c1c(O)ccc2ccccc12	> 100 µM
O=C1CCCN1c1ccccc1I(=O)=O	> 100 µM
COc1cccc(/C=N/[N-]C(=O)c2ccncc2)c1[O-].COc1cccc(/C=N/[N-]C(=O)c2ccncc2)c1[O-].[O]=[U](=[O])([OH2+])[OH2+]	> 100 µM
COc1ccc(-c2cnnn2-c2nonc2-n2cccc2)cc1	0.787 µM
NC(=O)C(=O)CC(=O)c1ccccc1NC1=CC(=O)C(=O)c2ccccc21	> 100 µM
Cn1c(=O)c2c(nc(C(=N)SCC(=O)O)n2C)n(C)c1=O	71.5 µM
C[C@@H]1S[C@H](c2ccccc2F)N2Cc3ccccc3N=C12	> 100 µM
COc1nc2ncc([C@@H](OC(C)=O)[C@@H](COC(C)=O)OC(C)=O)nc2c(=O)[nH]1	> 100 µM

====

system: TK-10 renal; assay: NCI tumour cell line growth inhibition, 48 h
quantity-name: TGI

molecule	quantity-name	measured-value
NNCCc1ccc(NC(=O)CCCc2ccc(C(=O)Nc3ccccc3N)cc2)cc1	TGI	> 100 µM
CCCCNC(=S)N/N=C/c1cccc(C)n1	TGI	97.6 µM
Nc1nc(-c2ccc(Cl)c([N+](=O)[O-])c2)cs1	TGI	> 100 µM
COc1ccc(C(CC(=O)c2ccc3c(c2)OCO3)c2c(O)c3ccccc3oc2=O)cc1OC (stereo not given)	TGI	> 100 µM
N=C(N)c1ccc(-c2ccc(-c3cccs3)s2)cc1	TGI	2.91 µM
CC(C)c1[nH]nc2c1N=C(c1ccccc1Cl)c1cc([N+](=O)[O-])ccc1N2	TGI	> 23.1 µM
C[C@@H](Cl)[C@H]1CCCN(Cc2ccc(Br)cc2)C1	TGI	> 12.5 µM
O=C(CN(c1ccccc1)c1ccccc1)N1c2ccccc2C2C=CC=CC21 (stereo not given)	TGI	> 57.2 µM
COc1ccc(-c2oc(/C=N/NC(N)=S)c([N+](=O)[O-])c2-c2ccc(OC)c(OC)c2)cc1OC	TGI	> 100 µM
COc1cc2c(cc1OC)[C@H]1CN3CCC[C@H]3C=C1c1ccc(OC)c(O)c1-2	TGI	0.114 µM

====

In this section we review reported TGI values for a set of molecules.
tested on: ACHN renal; experiment: NCI tumour cell line growth inhibition, 48 h

molecule	TGI
CCCc1cc(=O)n2c(C(=O)Nc3ccc(Cl)cc3C)c(C(=O)Nc3ccc(F)cc3)sc2n1	13.4 µM
Cc1cc2c(c(C(N)=O)c1C)-c1ccccc1C2=O	> 100 µM
O=C(CN(c1ccccc1)c1ccccc1)N1c2ccccc2C2C=CC=CC21 (configuration not stated)	> 59.1 µM
CC(=O)N1CCN(c2ccc(OCC3COC(Cn4ccnc4)(c4ccc(Cl)cc4Cl)O3)cc2)CC1 (configuration not stated)	> 100 µM
O=c1[nH]cnc(NC2C=C(CO)C(O)C2O)c1[N+](=O)[O-] (configuration not stated)	> 100 µM
CCOC(CNCCC(=O)OC)OCC	> 10 µM
Cc1cn(-c2cc(C(=O)Nc3cccc(-n4ccc5c(NC(=O)c6ccccc6)nccc54)c3)cc(C(F)(F)F)c2)cn1	8.7 µM

====

system: EKVX NSCLC; test: NCI tumour cell line growth inhibition, 48 h
In this section we review reported GI50 values for a set of molecules.
quantity-name: GI50

cpd-smiles	quantity-name	measured-value
CCCc1cc(=O)n2c(C(=O)Nc3ccc(Cl)cc3C)c(C(=O)Nc3ccc(F)cc3)sc2n1	GI50	21.3 µM
COc1ccc(-c2nn(-c3cccc(Cl)c3)cc2-c2cc(-c3ccccc3)[nH]c(=O)c2C#N)cc1	GI50	1.37 µM
C=CC(=O)N1CN(C(=O)C=C)CN(C(=O)C=C)C1	GI50	9.02 µM
O=C(c1ccco1)c1c(C(F)(F)F)n([O-])c2ccc(C(F)(F)F)cc2[n+]1=O	GI50	0.727 µM

====

test system: MDA-N; test: NCI tumour cell line growth inhibition, 48 h

compound	subject-of-test	value-operator	TGI [µM]
COC(=O)C1C(O)C(C(=O)OC)C(C)N(C)C1C (stereo not drawn)	MDA-N	>	100
S=C(/N=c1\sc(Nc2ccc(Cl)cc2)nc2sc3c(c12)CCN(N1CCc2c(sc4nc(Nc5ccc(Cl)cc5)s/c(=N\C(=S)Nc5ccc(Cl)cc5)c24)C1)C3)Nc1ccc(Cl)cc1	MDA-N	=	30.8
CC(=O)O[C@H]1C(=O)[C@@]2(C)[C@H]([C@H](OC(=O)c3ccc(F)cc3)[C@]3(O)C[C@H](OC(=O)[C@H](O)[C@@H](NC(=O)c4ccccc4)c4ccccc4)C(C)=C1C3(C)C)[C@]1(OC(C)=O)CO[C@@H]1C[C@@H]2O	MDA-N	=	0.00496
COc1ccc(S(=O)(=O)N2C(=O)CCC2C(=O)NN)cc1 (stereo not drawn)	MDA-N	>	100
O=C1NCC(NC(=O)C(F)(F)F)c2c(Br)sc(Br)c21 (stereo not drawn)	MDA-N	>	100
CC1CC(O)C(=O)C(O[C@@H]2C[C@@H]3CC[C@@H]4[C@H](CC[C@]5(C)C(C6=CC(=O)OC6)CC[C@]45O)[C@@]3(C=O)C[C@H]2O)O1 (stereo partly drawn)	MDA-N	=	0.199
Nc1ccccc1O.O.O=C(O)C1[O][Sb][O]C1C(=O)O (stereo not drawn)	MDA-N	=	42.2
N/C(=N\S(=O)(=O)c1c(C(F)(F)F)cccc1C(F)(F)F)Nc1ccc(Cl)cc1	MDA-N	>	100
